- target under test: T1, extracellular domain of human CD47 (CD47-ECD), residues 1-118, with His6 tag and Avi tag (human, UniProt Q08722 19-136, biotin modification at the C-terminus (Avi tag, BirA) in the form called CD47-Bio)
- T1 construct: also called CD47-ECD-His6; CD47-Bio; not shown: His6 tag and Avi tag from the vector
- protocol description: SPR (Biacore T200), IgG1 captured on CM5 chip, CD47 as analyte [Con't]
Entries and their measured pKd follow.
Conceptually, pKd converts a concentration in mol/L into minus its log10.

// pKd lookup, binder = BC7m04 (antibody, IgG1, V domains shown) VH: QVQLQQSGPGLVKPSETLSLTCTVSGDSINYHYWSWIRQPPGKGLEWIGYIYYSGSTTYNPSLKSRVTMSVDPSKNHFSLKLTSVTAADTALYFCARQRGAYDYWGQGTLVTVSS VL: DIVMTQSPSSVSASVGDRVTITCRASQDIGSRLAWYQQKPGKAPKLLIYAASSLQSGVPSRFSGSGSGTDFTLTISSLQPEDFATYYCQQYNSFSPITFGQGTRLEIK , result: 8.81

// pKd lookup, binder = BC18 full-length human IgG1 (antibody, V domains shown, also called anti-CD47 mAb; parental anti-CD47 mAb) VH: QVQLQQSGPGLVKPSETLSLTCTVSGDSINYHYWSWIRQPPGKGLEWIGYIYYSGSTTYNPSLKSRVTMSVDPSKNHFSLKLTSVTAADTALYFCARQRGAYDYWGQGTQVTVSS VL: DIQLTQSPSSVSASVGDRVTIACRASQDIGSRLVWYQQRPGKAPKLLIYAASSLQSGVPSRFSGSGSGTDFTLTISSLQPEDFATYYCQQSYSTPYSFGQGTKLEIK , result: 8.79

// pKd lookup, binder = BC7m03 (antibody, IgG1, V domains shown) VH: QVQLQQSGPGLVKPSETLSLTCTVSGDSINYHYWSWIRQPPGKGLEWIGYIYYSGSTTYNPSLKSRVTMSVDPSKNHFSLKLTSVTAADTALYFCARQRGAYDYWGQGTLVTVSS VL: DIVMTQSPSSVSASVGDRVTITCRASQDIGSRLAWYQQKPGKAPQLLIYAASSLQSGVPSRFSGSGSGTEFTLTISSLQPDDFATYYCQQYNSFSPITFGQGTRLEIK , result: 8.84

// pKd lookup, binder = BC7 full-length human IgG1 (antibody, V domains shown) VH: QVQLQQSGPGLVKPSETLSLTCTVSGDSINYHYWSWIRQPPGKGLEWIGYIYYSGSTTYNPSLKSRVTMSVDPSKNHFSLKLTSVTAADTALYFCARQRGAYDYWGQGTLVTVSS VL: DIVMTQSPSSVSASVGDRVTITCRASQGIGSRLAWYQQKPGKAPQLLIYAASSLQSGVPSRFSGSGSGTEFTLTISSLQPDDFATYYCQQYNSFSPITFGQGTRLEIK , result: 8.32

// pKd lookup, binder = BC18m03 (antibody, IgG1, V domains shown) VH: QVQLQESGPGLVKPSETLSLTCTVSGDSINYHYWSWIRQPPGKGLEWIGYIYYSGSTTYNPSLKSRVTMSVDPSKNHFSLKLTSVTAADTALYFCARQRGAYDYWGQGTLVTVSS VL: DIQLTQSPSSVSASVGDRVTIACRASQDIGSRLVWYQQRPGKAPKLLIYAASSLQSGVPSRFSGSGSGTDFTLTISSLQPEDFATYYCQQSYSTPYSFGQGTKLEIK , result: 8.80
